# Procedure Details: Example 18 cynomolgus monkey PK study (SC and IM)
# Type: in vivo, cynomolgus monkeys
# Condition Context: male, cynomolgus monkey, plasma, intramuscular, 20 mg/kg equivalent of EFdA, IM 20 mg/kg equivalent of EFdA; Monkey 2002; 0.021 days; read-out: Example 18 plasma concentrations
Endpoint: concentration at 0.021 days
Note: a bare number is incomplete; add the unit.

**Query** Quick one: concentration at 0.021 days for C#C[C@]1(COC(=O)CCCCCCCCC)O[C@@H](n2cnc3c(N)nc(F)nc32)C[C@@H]1OC(=O)CCCCCCCCC ?
**Result** 40.2 ng/mL

====

# Procedure Details: Example 18 cynomolgus monkey PK study (SC and IM)
# Format: in vivo, cynomolgus monkeys
# Condition Context: male, cynomolgus monkey, plasma, intramuscular, 20 mg/kg equivalent of EFdA, IM 20 mg/kg equivalent of EFdA; Monkey 2002; 3 days; read-out: Example 18 plasma concentrations
Endpoint: concentration at 3 days (ng/mL)
Provide the reading as a plain figure in ng/mL.

**Query** Quick one: concentration at 3 days for C#C[C@]1(COC(=O)CCCCCCCCC)O[C@@H](n2cnc3c(N)nc(F)nc32)C[C@@H]1OC(=O)CCCCCCCCC ?
**Result** 0.533

====

# Procedure Details: Example 18 cynomolgus monkey PK study (SC and IM)
# Format: in vivo, cynomolgus monkeys
# Condition Context: male, cynomolgus monkey, plasma, sc, 20 mg/kg, SC 20 mg/kg equivalent of EFdA; Monkey 1002 (column 3); 10 days; read-out: Example 18 plasma concentrations
Endpoint: concentration at 10 days (ng/mL)
Provide the reading as a plain figure in ng/mL.

**Query** Quick one: concentration at 10 days for C#C[C@]1(COC(=O)CCCCCCCCC)O[C@@H](n2cnc3c(N)nc(F)nc32)C[C@@H]1OC(=O)CCCCCCCCC [Example 18] ?
**Result** 0.146

====

# Procedure Details: Example 18 cynomolgus monkey PK study (SC and IM)
# Type: in vivo, cynomolgus monkeys
# Condition Context: male, cynomolgus monkey, plasma, intramuscular, 20 mg/kg equivalent of EFdA, IM 20 mg/kg equivalent of EFdA; Mean; 3 days; read-out: Example 18 plasma concentrations
Endpoint: concentration at 3 days

**Query** Quick one: concentration at 3 days for C#C[C@]1(COC(=O)CCCCCCCCC)O[C@@H](n2cnc3c(N)nc(F)nc32)C[C@@H]1OC(=O)CCCCCCCCC ?
**Result** 0.505 ng/mL

====

# Procedure Details: Example 18 cynomolgus monkey PK study (SC and IM)
# Format: in vivo, cynomolgus monkeys
# Condition Context: male, cynomolgus monkey, plasma, intramuscular, 20 mg/kg equivalent of EFdA, IM 20 mg/kg equivalent of EFdA; Monkey 2003; 19 days; read-out: Example 18 plasma concentrations
Endpoint: concentration at 19 days
Note: a bare number is incomplete; add the unit.

**Query** Quick one: concentration at 19 days for C#C[C@]1(COC(=O)CCCCCCCCC)O[C@@H](n2cnc3c(N)nc(F)nc32)C[C@@H]1OC(=O)CCCCCCCCC ?
**Result** 0.129 ng/mL

====

# Procedure Details: Example 18 cynomolgus monkey PK study (SC and IM)
# Format: in vivo, cynomolgus monkeys
# Condition Context: male, cynomolgus monkey, plasma, intramuscular, 20 mg/kg equivalent of EFdA, IM 20 mg/kg equivalent of EFdA; Mean; 17 days; read-out: Example 18 plasma concentrations
Endpoint: concentration at 17 days (ng/mL)
Provide the reading as a plain figure in ng/mL.

**Query** Quick one: concentration at 17 days for C#C[C@]1(COC(=O)CCCCCCCCC)O[C@@H](n2cnc3c(N)nc(F)nc32)C[C@@H]1OC(=O)CCCCCCCCC [Example 18] ?
**Result** 0.145
